Below, each entry is listed with its recorded response, % of control.
System: Isocitrate dehydrogenase [NADP] cytoplasmic (Homo sapiens), O75874 [R132H]
Sequence (O75874 whole entry R132H): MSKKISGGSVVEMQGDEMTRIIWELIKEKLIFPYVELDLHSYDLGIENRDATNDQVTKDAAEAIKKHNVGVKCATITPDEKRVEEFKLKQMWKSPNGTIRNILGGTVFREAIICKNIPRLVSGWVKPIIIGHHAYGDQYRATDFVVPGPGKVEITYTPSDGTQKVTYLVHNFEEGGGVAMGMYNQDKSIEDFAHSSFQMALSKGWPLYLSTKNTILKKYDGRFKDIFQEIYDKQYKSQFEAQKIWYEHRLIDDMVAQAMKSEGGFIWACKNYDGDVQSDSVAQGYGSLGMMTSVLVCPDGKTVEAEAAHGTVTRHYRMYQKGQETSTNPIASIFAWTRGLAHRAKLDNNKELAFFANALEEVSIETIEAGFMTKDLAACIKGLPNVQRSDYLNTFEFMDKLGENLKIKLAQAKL
protocol text: Inhibition of IDH1 R132H mutant (unknown origin) expressed in HEK293T cells assessed as D2-HG level at 50 uM after 72 hrs relative to control
Type: cell-based
assay context: values are per cent of control

[
  {
    "molecule": "COc1cccc(C(=O)Nc2cccc(OCC(=O)c3ccccc3)c2)c1",
    "response, % of control, %": 73.7
  },
  {
    "molecule": "Cc1ccccc1C(C(=O)NC1CCCCC1)N(C(=O)Cn1ccnc1C)c1cccc(F)c1 (stereo not drawn)",
    "response, % of control, %": 0.4
  },
  {
    "molecule": "CC(C)CCOc1cccc(C(=O)Nc2ccc(C(=O)Nc3cccc4ccccc34)cc2)c1",
    "response, % of control, %": 49.5
  },
  {
    "molecule": "CC(O)c1cccc(NC(=O)c2cnn3c2NC(c2ccccc2)CC3C(F)(F)F)c1 (stereo not drawn)",
    "response, % of control, %": 39.9
  },
  {
    "molecule": "Cc1ccc(NC(=O)c2cc([N+](=O)[O-])cc3c2-c2ccc([N+](=O)[O-])cc2C3=O)cc1",
    "response, % of control, %": 72.5
  },
  {
    "molecule": "O=C(Nc1cccc(NC(=O)c2cccc(S(=O)(=O)N3CCCCC3)c2)c1)c1ccc(Br)cc1",
    "response, % of control, %": 59.5
  },
  {
    "molecule": "COc1ccccc1NC(=O)c1c(NCc2cccnc2)sc2c1CC[C@H](C)C2",
    "response, % of control, %": 32
  },
  {
    "molecule": "COC(=O)c1ccccc1NC(=O)CNCn1cnc2ccccc21",
    "response, % of control, %": 66.3
  }
]
